IC50 values recorded for UniProt Q92731
Sequence (Q92731 whole entry): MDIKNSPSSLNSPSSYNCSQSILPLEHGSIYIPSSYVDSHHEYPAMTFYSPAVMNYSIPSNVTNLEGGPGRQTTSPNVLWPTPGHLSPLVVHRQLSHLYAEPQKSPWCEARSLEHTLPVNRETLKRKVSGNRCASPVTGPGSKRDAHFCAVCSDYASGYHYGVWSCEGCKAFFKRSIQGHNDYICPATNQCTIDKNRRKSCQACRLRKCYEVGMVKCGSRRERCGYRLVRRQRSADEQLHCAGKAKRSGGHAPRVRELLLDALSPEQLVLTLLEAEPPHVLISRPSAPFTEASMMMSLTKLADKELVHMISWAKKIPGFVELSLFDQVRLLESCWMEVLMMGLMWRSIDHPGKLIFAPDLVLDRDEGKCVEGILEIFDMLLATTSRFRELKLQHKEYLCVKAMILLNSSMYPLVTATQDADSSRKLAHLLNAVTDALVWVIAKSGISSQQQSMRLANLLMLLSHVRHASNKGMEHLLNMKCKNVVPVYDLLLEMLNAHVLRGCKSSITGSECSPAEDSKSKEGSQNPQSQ

{"columns": ["COMPOUND", "IC50"],
 "data": [
  ["CC1=C(COCC[Si](C)(C)C)[C@H](c2ccc(OCCN3CCCCC3)cc2)Oc2cc(O)ccc21 (single isomer, unassigned) [compound 3]", "> 10 µM"],
  ["OCCC1=CC(c2ccc(OCCN3CCCCC3)cc2)Oc2cc(O)ccc21 (stereo not drawn) [compound 6]", "> 10 µM"],
  ["Oc1ccc2c(c1)OC(c1ccc(OCCN3CCCCC3)cc1)C=C2C1CCCC1 (stereo not drawn) [compound 10]", "0.5 µM"]
]}

* * *

- TARGET_ENTITY: human estrogen receptor α (Homo sapiens)
- Sequence (P03372 1-595): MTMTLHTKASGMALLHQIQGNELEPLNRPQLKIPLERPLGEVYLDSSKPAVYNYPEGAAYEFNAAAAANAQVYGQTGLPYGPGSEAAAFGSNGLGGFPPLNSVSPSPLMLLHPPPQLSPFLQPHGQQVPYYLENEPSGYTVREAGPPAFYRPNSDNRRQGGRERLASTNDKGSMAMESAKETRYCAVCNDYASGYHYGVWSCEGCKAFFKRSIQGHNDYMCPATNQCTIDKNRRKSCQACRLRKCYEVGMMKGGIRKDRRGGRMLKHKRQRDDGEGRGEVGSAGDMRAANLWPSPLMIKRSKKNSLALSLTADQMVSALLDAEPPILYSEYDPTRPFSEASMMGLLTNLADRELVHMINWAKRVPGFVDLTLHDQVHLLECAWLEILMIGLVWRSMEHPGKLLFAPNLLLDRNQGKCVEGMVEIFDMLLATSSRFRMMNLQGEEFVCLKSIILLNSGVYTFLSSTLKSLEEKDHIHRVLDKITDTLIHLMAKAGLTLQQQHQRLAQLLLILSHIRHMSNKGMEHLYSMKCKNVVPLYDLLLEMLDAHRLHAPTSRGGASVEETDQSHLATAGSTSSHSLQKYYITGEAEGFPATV

{"columns": ["COMPOUND", "TARGET_ENTITY", "VALUE_QUALIFIER", "IC50, nM"],
 "data": [
  ["Oc1ccc2c(c1)OC(c1ccc(OCCN3CCCCC3)cc1)C=C2C1CCCC1 (stereo not shown)", "human estrogen receptor α (Homo sapiens)", "=", 180],
  ["OCCC1=CC(c2ccc(OCCN3CCCCC3)cc2)Oc2cc(O)ccc21 (stereo not shown)", "human estrogen receptor α (Homo sapiens)", ">", 10000],
  ["CC1=C(COCC[Si](C)(C)C)[C@H](c2ccc(OCCN3CCCCC3)cc2)Oc2cc(O)ccc21 (single isomer, unassigned)", "human estrogen receptor α (Homo sapiens)", "=", 180],
  ["Oc1ccc2c(c1)OC(c1ccc(OCCN3CCCCC3)cc1)C1=C2CCCCC1 (stereo not shown)", "human estrogen receptor α (Homo sapiens)", "=", 59]
]}
